Source of measurements: patent US8258118B2

System Under Test: UniProtKB P08581
Sequence (P08581 25-1390): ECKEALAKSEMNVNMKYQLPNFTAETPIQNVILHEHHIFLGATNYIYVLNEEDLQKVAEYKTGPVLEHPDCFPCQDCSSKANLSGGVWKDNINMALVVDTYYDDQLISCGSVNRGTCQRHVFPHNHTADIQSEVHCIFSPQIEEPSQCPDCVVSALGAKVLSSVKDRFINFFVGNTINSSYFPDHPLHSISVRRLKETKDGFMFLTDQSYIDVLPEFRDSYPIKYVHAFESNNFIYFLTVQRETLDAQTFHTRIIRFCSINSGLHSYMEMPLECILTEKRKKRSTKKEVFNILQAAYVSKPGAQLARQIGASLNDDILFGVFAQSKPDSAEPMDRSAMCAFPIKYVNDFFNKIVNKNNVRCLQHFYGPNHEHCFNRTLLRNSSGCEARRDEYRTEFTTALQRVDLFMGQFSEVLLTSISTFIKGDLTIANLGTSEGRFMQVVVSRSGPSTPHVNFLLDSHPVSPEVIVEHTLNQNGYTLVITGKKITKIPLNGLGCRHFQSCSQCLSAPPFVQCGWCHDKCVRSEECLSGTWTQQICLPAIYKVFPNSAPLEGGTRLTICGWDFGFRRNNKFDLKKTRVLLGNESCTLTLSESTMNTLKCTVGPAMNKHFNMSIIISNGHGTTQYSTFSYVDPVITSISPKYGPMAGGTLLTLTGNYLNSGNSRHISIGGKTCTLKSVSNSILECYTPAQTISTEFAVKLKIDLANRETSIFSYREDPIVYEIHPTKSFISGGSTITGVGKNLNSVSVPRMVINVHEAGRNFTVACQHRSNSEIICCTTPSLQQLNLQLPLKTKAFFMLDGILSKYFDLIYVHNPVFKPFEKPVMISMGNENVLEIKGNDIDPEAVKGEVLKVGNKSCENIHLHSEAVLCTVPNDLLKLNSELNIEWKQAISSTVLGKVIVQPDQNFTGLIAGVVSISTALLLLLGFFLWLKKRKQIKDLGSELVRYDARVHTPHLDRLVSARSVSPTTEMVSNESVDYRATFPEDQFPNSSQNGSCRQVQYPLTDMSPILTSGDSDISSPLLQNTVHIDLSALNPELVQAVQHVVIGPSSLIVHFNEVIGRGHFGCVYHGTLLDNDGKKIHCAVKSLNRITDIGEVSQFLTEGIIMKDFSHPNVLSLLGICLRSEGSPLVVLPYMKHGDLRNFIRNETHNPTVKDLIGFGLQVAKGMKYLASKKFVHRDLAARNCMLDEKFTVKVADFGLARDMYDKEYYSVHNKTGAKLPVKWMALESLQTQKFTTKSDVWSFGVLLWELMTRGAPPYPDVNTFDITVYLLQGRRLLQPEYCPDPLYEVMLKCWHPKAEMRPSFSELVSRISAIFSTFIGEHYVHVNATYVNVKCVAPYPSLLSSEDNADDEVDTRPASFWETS
# Lookup of reported IC50 keyed by entry
Field: numeric (nM). Do not append units.

Answered cases to consult:
Nc1cc(Oc2ccc(NC(=O)c3c[nH]cc(Cc4ccccc4)c3=O)cc2F)ccn1 [Compound A]	160
Nc1nccc(Oc2ccc(NC(=O)c3c[nH]cc(-c4ccc(F)cc4)c3=O)cc2F)c1Cl [Example 1]	1.7

Let us move to another entry and its IC50.
# get_value(readout= IC50, system= UniProtKB P08581) for Nc1cc(Oc2ccc(NC(=O)c3cccn(-c4ccc(F)cc4)c3=O)cc2F)ccn1 [Compound B]
4.8

* * *

# Lookup of reported IC50 keyed by entry
System Under Test: UniProt:P35968
Sequence (P35968 20-1356): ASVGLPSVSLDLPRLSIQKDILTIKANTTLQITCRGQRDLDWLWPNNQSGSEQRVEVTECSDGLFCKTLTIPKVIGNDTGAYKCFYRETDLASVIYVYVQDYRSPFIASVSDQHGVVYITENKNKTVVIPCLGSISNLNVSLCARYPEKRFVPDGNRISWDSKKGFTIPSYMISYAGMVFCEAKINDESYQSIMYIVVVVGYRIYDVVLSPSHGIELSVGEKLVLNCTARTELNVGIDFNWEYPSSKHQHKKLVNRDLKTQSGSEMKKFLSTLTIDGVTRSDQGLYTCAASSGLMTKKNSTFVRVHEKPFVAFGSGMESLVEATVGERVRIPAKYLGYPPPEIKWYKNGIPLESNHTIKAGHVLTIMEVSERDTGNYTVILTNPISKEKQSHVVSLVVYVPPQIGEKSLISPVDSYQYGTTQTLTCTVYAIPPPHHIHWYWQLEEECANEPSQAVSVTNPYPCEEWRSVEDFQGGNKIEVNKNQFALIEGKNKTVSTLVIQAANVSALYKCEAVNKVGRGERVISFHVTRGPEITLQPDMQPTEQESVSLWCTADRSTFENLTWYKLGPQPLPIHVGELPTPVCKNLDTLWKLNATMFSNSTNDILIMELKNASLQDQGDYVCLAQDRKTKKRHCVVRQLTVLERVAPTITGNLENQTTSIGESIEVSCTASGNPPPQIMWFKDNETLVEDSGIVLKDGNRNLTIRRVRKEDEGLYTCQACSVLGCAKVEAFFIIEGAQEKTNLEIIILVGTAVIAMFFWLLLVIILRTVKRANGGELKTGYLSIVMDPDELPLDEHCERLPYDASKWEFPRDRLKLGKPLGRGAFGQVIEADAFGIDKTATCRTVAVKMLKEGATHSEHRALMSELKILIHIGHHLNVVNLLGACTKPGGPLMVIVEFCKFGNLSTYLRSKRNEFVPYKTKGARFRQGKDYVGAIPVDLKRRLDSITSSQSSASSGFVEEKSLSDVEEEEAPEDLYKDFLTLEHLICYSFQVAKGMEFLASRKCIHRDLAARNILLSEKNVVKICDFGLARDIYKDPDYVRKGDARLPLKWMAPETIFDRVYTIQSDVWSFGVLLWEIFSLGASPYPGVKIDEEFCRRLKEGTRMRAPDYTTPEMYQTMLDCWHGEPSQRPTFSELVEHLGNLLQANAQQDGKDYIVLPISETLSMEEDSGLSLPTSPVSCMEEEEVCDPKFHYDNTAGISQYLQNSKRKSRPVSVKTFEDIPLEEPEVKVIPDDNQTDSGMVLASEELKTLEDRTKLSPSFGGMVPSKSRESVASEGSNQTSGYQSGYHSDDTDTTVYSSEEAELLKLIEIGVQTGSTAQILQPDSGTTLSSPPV
Protocol Notes: VEGFR-2 kinase assay
Type: biochemical
Field: numeric (nM). Do not append units.

Nc1nccc(Oc2ccc(NC(=O)c3c[nH]cc(-c4ccc(F)cc4)c3=O)cc2F)c1Cl	15

Let us move to another entry and its IC50.
Would you mind telling me what IC50 value was observed for Nc1cc(Oc2ccc(NC(=O)c3cccn(-c4ccc(F)cc4)c3=O)cc2F)ccn1 ?
40
